Known IC50 of a selection of compounds
Molecular target: cellular cereblon (CRBN) (Homo sapiens, UniProt Q96SW2)
Experiment: NanoBRET Target Engagement Assay, competition with pomalidomide tracer in 293T.116 cells
Conditions: NanoBRET TE 293T.116 CRBN 2 hours IC50 nM, 2 hours incubation, 293T.116 cells

Solved cases (3 shown):
# compound, target entity, IC50
records = [
    ("O=C1CCN(c2ccc(OS(=O)(=O)F)cc2)C(=O)N1", "cellular cereblon (CRBN) (Homo sapiens, UniProt Q96SW2)", "> 10000 nM"),
    ("O=C1CCC(Oc2ccc(C3CCNCC3)c(S(=O)(=O)F)c2)C(=O)N1 (centres unmarked)", "cellular cereblon (CRBN) (Homo sapiens, UniProt Q96SW2)", "< 1000 nM"),
    ("O=C1NC(=O)C2(c3ccc(S(=O)(=O)F)cc3)CC1C2", "cellular cereblon (CRBN) (Homo sapiens, UniProt Q96SW2)", "1000 to 10000 nM"),
]

Give the reported value of IC50 for this record: O=C1CCC(c2ccc(N3CCNCC3)c(OS(=O)(=O)F)c2)C(=O)N1 (centres unmarked) < 1000 nM

Give the reported value of IC50 for this record: COc1ccc(OC2CCC(=O)NC2=O)cc1S(=O)(=O)F (centres unmarked) < 1000 nM

* * *

Target: mutant BRAF V600E (Homo sapiens, UniProt P15056, V600E)
Test: BRAF V600E HiBiT Degradation Assay in A375.10 cells
Settings: read-out: HiBIT-Degradation A375.10 BRAF 24 hours DC50 nM; 24 hours, A375.10 cells
measure: DC50

Solved cases (4 shown):
# compound, DC50
rows = [
    ("CCN(C)S(=O)(=O)Nc1ccc(F)c(Oc2ccc3ncn([C@@H]4COC5(CCN(C(=O)CN6CCC(c7ccc(OC8CCC(=O)NC8=O)cc7OS(=O)(=O)F)CC6)CC5)C4)c(=O)c3c2)c1C#N (some centres unmarked) [drawing 1228]", "1000 to 10000 nM"),
    ("CCN(C)S(=O)(=O)Nc1ccc(F)c(Oc2ccc3ncn([C@H]4COC5(CCN(C(=O)CN6CCN(c7ccc(C8CCC(=O)NC8=O)cc7OS(=O)(=O)F)CC6)CC5)C4)c(=O)c3c2)c1C#N (some centres unmarked) [drawing 1212]", "< 1000 nM"),
    ("CCN(C)S(=O)(=O)Nc1ccc(F)c(Oc2ccc3ncn([C@H]4COC5(CCN(C(=O)CN6CCC(c7ccc(C8CCC(=O)NC8=O)cc7OS(=O)(=O)F)CC6)CC5)C4)c(=O)c3c2)c1C#N (some centres unmarked) [drawing 1211]", "< 1000 nM"),
    ("CCN(C)S(=O)(=O)Nc1ccc(F)c(Oc2ccc3ncn([C@@H]4COC5(CCN(C(=O)CN6CCC(c7ccc(OC8CCC(=O)NC8=O)cc7S(=O)(=O)F)CC6)CC5)C4)c(=O)c3c2)c1C#N (some centres unmarked) [drawing 1221]", "< 1000 nM"),
]

Then there is this compound:
Give the reported value of DC50 for this record: CCN(C)S(=O)(=O)Nc1ccc(F)c(Oc2ccc3ncn([C@H]4COC5(CCN(C(=O)CN6CCC(c7ccc(N8CCC(=O)NC8=O)cc7OS(=O)(=O)F)CC6)CC5)C4)c(=O)c3c2)c1C#N [drawing 1218] > 10000 nM

* * *

Known IC50 of a selection of compounds
Target: cellular cereblon (CRBN) (Homo sapiens)
Test: NanoBRET Target Engagement Assay, competition with pomalidomide tracer in 293T.116 cells
Settings: NanoBRET TE 293T.116 CRBN 6 hours IC50 nM, 6 hours incubation, 293T.116 cells

Solved cases (5 shown):
# compound, IC50
records = [
    ("Cn1nc(N2CCC(=O)NC2=O)c2cccc(OS(=O)(=O)F)c21 [Compound A-30]", "< 1000 nM"),
    ("O=C1CCC(c2ccc(S(=O)(=O)F)cc2)C(=O)N1 (centres unmarked) [Compound A-12]", "< 1000 nM"),
    ("O=C1CCC(Oc2ccc(S(=O)(=O)F)cn2)C(=O)N1 (centres unmarked) [Compound A-9]", "1000 to 10000 nM"),
    ("O=C1CCC(CNc2cccc(OS(=O)(=O)F)c2)C(=O)N1 (centres unmarked) [Compound A-40]", "1000 to 10000 nM"),
    ("Cc1ccc(OC2CCC(=O)NC2=O)cc1OS(=O)(=O)F (centres unmarked) [Compound A-19]", "1000 to 10000 nM"),
]

Give the reported value of IC50 for this record: O=C1CCC(c2ccc(OS(=O)(=O)F)cc2)C(=O)N1 (centres unmarked) [Compound A-25] < 1000 nM

Give the reported value of IC50 for this record: CN(c1cccc(OS(=O)(=O)F)c1)C1CCC(=O)NC1=O (centres unmarked) [Compound A-18] 1000 to 10000 nM

Give the reported value of IC50 for this record: COc1cc(OC2CCC(=O)NC2=O)cc(OS(=O)(=O)F)c1 (centres unmarked) [Compound A-21] < 1000 nM

Give the reported value of IC50 for this record: O=C1CCC(c2ccc(N3CCNCC3)c(OS(=O)(=O)F)c2)C(=O)N1 (centres unmarked) [Compound A-36] < 1000 nM

Give the reported value of IC50 for this record: O=C1CCC(c2cccc(OS(=O)(=O)F)c2)C(=O)N1 (centres unmarked) [Compound A-23] 1000 to 10000 nM

Give the reported value of IC50 for this record: O=C1NC(=O)C2(Nc3ccc(S(=O)(=O)F)cc3)CC1C2 [Compound A-33] 1000 to 10000 nM

* * *

Known Emax of a selection of compounds
Target: cellular cereblon (CRBN) (Homo sapiens)
Experiment: NanoBRET Target Engagement Assay, competition with pomalidomide tracer in 293T.116 cells
Details: read-out: NanoBRET TE 293T.116 CRBN 24 hours Emax

Solved cases (4 shown):
# compound, Emax
rows = [
    ("O=C1CCC(c2ccc(OS(=O)(=O)F)cc2)C(=O)N1 (centres unmarked)", "< 50%"),
    ("O=C1NC(=O)C2(Nc3ccc(S(=O)(=O)F)cc3)CC1C2", "< 50%"),
    ("O=C1CCC(Nc2ccc(C3CCNCC3)c(OS(=O)(=O)F)c2)C(=O)N1 (centres unmarked)", "< 50%"),
    ("CN(c1cccc(OS(=O)(=O)F)c1)C1CCC(=O)NC1=O (centres unmarked)", "< 50%"),
]

Give the reported value of Emax for this record: COc1cc(OC2CCC(=O)NC2=O)cc(OS(=O)(=O)F)c1 (centres unmarked) < 50%

Recorded values, source patent US20260274856A1.
